- assay system: Matrix-associated proTGFβ1 complexes (hLTBP1-proTGFβ1 and hLTBP3-proTGFβ1)
- assay method text: BLI (Octet)
readout label: ECM AVRG (average KD, hLTBP1 and hLTBP3 complexes) (nM)
Answer format: numeric, nM implied, no suffix.

binder	unit	reading
Ab21 (antibody, V domains shown) VH: EVQLVESGGGLVQPGGSLRLSCAASGFTFSSFSMDWVRQAPGKGLEWVSYISPDASTIYYADSVKGRFTISRDNAKNSLYLQMNSLRAEDTAVYYCARGVLDYGDMLDPWGQGTLVTVSS VL: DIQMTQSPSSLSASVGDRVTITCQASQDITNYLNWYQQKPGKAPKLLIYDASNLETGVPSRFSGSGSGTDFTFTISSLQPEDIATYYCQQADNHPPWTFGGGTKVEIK	nM	0.246
Ab22 (antibody, IgG4, V domains shown) VH: EVQLVESGGGLVQPGGSLRLSCAASGFTFGSFSMNWVRQAPGKGLEWVSYIHSDASTIYYADSVKGRFTISRDNAKNSLYLQMNSLRAEDTAVYYCARGVLDYGDMLDPWGQGTLVTVSS VL: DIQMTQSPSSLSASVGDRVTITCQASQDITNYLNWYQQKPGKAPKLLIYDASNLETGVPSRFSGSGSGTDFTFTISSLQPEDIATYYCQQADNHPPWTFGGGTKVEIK	nM	0.324

Below: the item to evaluate.
*Q* # get_value(readout='ECM AVRG (average KD, hLTBP1 and hLTBP3 complexes)', item= Ab30 (antibody, IgG4, V domains shown) VH: EVQLVESGGGLVQPGGSLRLSCAASGFTFSSFSMDWVRQAPGKGLEWVSYISPDASTIYYADSVKGRFTISRDNAKNSLYLQMNSLRAEDTAVYYCARGTLDYGDMLDPWGQGTLVTVSS VL: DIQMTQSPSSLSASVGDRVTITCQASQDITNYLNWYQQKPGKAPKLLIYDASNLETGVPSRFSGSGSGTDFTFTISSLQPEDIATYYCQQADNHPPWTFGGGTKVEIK )
*A* 0.296
